So I've got a bunch of sequences here, and I need their binding signal values.
# Study System: OsSMF1 (Oryza sativa, UniProt Q6ZLB0 1-436)
# Sequence: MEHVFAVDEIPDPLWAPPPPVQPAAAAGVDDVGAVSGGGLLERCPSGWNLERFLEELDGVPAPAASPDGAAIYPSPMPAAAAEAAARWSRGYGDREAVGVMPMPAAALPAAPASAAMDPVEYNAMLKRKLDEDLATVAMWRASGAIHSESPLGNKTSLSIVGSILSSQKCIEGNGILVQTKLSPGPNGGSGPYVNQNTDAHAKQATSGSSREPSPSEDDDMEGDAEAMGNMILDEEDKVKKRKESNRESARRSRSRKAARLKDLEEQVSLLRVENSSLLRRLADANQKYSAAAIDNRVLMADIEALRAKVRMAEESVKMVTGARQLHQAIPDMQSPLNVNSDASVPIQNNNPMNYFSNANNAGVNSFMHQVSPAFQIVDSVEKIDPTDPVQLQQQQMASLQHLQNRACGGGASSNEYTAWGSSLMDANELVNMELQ
# Method Notes: protein-binding microarray (RPBM); PBS, 2% BSA, 51.3 ng/ul salmon testes DNA, 50 uM zinc acetate, 200 nM TF, 25 C, 1 h; high values mean tight binding
# Study Conditions: protein: recombinant; tags: N-terminal polyhistidine and DsRed monomer fusion (pET32a); chain copies: 2; label: CyDye5-dUTP incorporated in the synthesized complementary strand; 3' TTTTT single-stranded linker to array surface; dsDNA, one strand shown
Over roughly 39,000 sequences, “fluorescence intensity (a.u.)” has its median near 4,300; the highest 2% begin near 39,000. This excerpt belongs to a sample that is enriched for the highest values.

Give the measured binding signal for `TCGAGCCCCTCTCCCTCCGCGAGCCGTGTGCAGCGGGCGACGGAGTCACCTAGTGCAG`
3430 fluorescence intensity (a.u.)

Give the measured binding signal for `ACAATGTTCCGGGTCTTATATTGCCAAATCAGTGACGTACCGGAGTCACCTAGTGCAG`
59800 fluorescence intensity (a.u.)

Give the measured binding signal for `CTGTGTGAACAACAAATCAATGGCCACGTCATATATGTACCGGAGTCACCTAGTGCAG`
16800 fluorescence intensity (a.u.)

Give the measured binding signal for `TGTCAATAATGCATCCTGCAGCTAACATCAAATGACATGGCGGAGTCACCTAGTGCAG`
3150 fluorescence intensity (a.u.)

Give the measured binding signal for `TCCGCGGCCCCGCTGGCCCACACGCATGCGTCCAAACAGCCGGAGTCACCTAGTGCAG`
3940 fluorescence intensity (a.u.)

Give the measured binding signal for `TGCCCACGCCGCGCCGCCGCCTCCTCCTCCTCCTCCTCCTCGGAGTCACCTAGTGCAG`
46900 fluorescence intensity (a.u.)

Give the measured binding signal for `CGTCGTGCTCGTCGACGTCGTGCACTCCGTCGCCATCGTGCGGAGTCACCTAGTGCAG`
3220 fluorescence intensity (a.u.)

Give the measured binding signal for `GTTAATGGTGACTTTATTTTCGTCTGTTACAAAACGGAAGCGGAGTCACCTAGTGCAG`
3250 fluorescence intensity (a.u.)

Give the measured binding signal for `CGTCCACCGCGCCGCCGCCGCCCTCCGTCACGCGCGCGCTCGGAGTCACCTAGTGCAG`
3270 fluorescence intensity (a.u.)

Give the measured binding signal for `CTTGGATCCAACGGCCACGGCTCTCTCATCGCCGCGCCCCCGGAGTCACCTAGTGCAG`
46100 fluorescence intensity (a.u.)

Give the measured binding signal for `GCCTCTCCTTGCTTGCGTGCTCACTGTCGCTGACTGCTCTCGGAGTCACCTAGTGCAG`
4650 fluorescence intensity (a.u.)

Give the measured binding signal for `CCCCACCACCTCATCGATCCGCGCCACCACCCAACCCACCCGGAGTCACCTAGTGCAG`
4250 fluorescence intensity (a.u.)

Give the measured binding signal for `TAATTAAATTGTCATATCACTTCTTAACTTATTGGACTAACGGAGTCACCTAGTGCAG`
3220 fluorescence intensity (a.u.)

Give the measured binding signal for `CACGATTGCTCGGTGAGCACTGAGCAGTGACCTCATTCGGCGGAGTCACCTAGTGCAG`
3820 fluorescence intensity (a.u.)

Give the measured binding signal for `AGGCTCCCCTGAGTCGTGACGTGCACTCGAAAGTCGAAAGCGGAGTCACCTAGTGCAG`
41100 fluorescence intensity (a.u.)

Give the measured binding signal for `CATCCATCCGGTCAAAGCAGCCGGCCACGTGGCGTGTCCCCGGAGTCACCTAGTGCAG`
28100 fluorescence intensity (a.u.)

Give the measured binding signal for `TTCCCAAAAGGAGGCCCAATGAGAACTTGTATAGTCCTATCGGAGTCACCTAGTGCAG`
19500 fluorescence intensity (a.u.)

Give the measured binding signal for `TACTTTAAGTACATGTATTAGTCAGCTGATATATACCTCACGGAGTCACCTAGTGCAG`
4310 fluorescence intensity (a.u.)

Give the measured binding signal for `AGGTGCAGATGCTACTACTGATCTGGAACAGTGATCTCCACGGAGTCACCTAGTGCAG`
3180 fluorescence intensity (a.u.)

Give the measured binding signal for `CTTATCTACTTGATATTTGCATATGTATACAGTTTTACTGCGGAGTCACCTAGTGCAG`
3220 fluorescence intensity (a.u.)

Give the measured binding signal for `ACAGGCGAGGGTGGAACCCCGCGTGGCGAGAGCGTTGCGGCGGAGTCACCTAGTGCAG`
4270 fluorescence intensity (a.u.)

Give the measured binding signal for `GCGCGCCACGCCACGCCACGCGCCCACGCCTCGCCTCGCCCGGAGTCACCTAGTGCAG`
10000 fluorescence intensity (a.u.)

Give the measured binding signal for `ATCTGTTAGGTATTTAATTTATTTTCTTTTGCTATGTCAGCGGAGTCACCTAGTGCAG`
3880 fluorescence intensity (a.u.)

Give the measured binding signal for `TGGCTTCACTTGCAACGGTACAAGAACCACCATCACTTCCCGGAGTCACCTAGTGCAG`
40100 fluorescence intensity (a.u.)

Give the measured binding signal for `GCCTTTCTCTCCACCGCGATTTCTATATATAAAACGCCCCCGGAGTCACCTAGTGCAG`
9620 fluorescence intensity (a.u.)

Give the measured binding signal for `AATCGTGTCCATGGTCTCCACCTCACGGGAGATTCTCCGCCGGAGTCACCTAGTGCAG`
3830 fluorescence intensity (a.u.)

Give the measured binding signal for `TCCTCCTTCCTTCCACCTCACCCCAACCCCAACCCCAACCCGGAGTCACCTAGTGCAG`
4080 fluorescence intensity (a.u.)

Give the measured binding signal for `CCCCGCTTCGCCGCCGGCCGCCTCTCTCTTCTCAAGAGTCCGGAGTCACCTAGTGCAG`
3340 fluorescence intensity (a.u.)

Give the measured binding signal for `CTCCTCACACATTCCCACGCACACATTTCCCCATGCACATCGGAGTCACCTAGTGCAG`
3180 fluorescence intensity (a.u.)

Give the measured binding signal for `ACATAATTGTATTATGCAGAACCAAAGCAGGCCACGTGAGCGGAGTCACCTAGTGCAG`
5470 fluorescence intensity (a.u.)

Give the measured binding signal for `GCGAAAACCCTGCATAAACATAGGAAAACACCAAGTGGGTCGGAGTCACCTAGTGCAG`
3560 fluorescence intensity (a.u.)

Give the measured binding signal for `CGCTTCTCTCCCTGAGCTCGGCCTCGTGTCACTGACGTCGCGGAGTCACCTAGTGCAG`
4390 fluorescence intensity (a.u.)

Give the measured binding signal for `ACAGGAGCACCATCAACAGCTGACAACTTGGCATTGGTATCGGAGTCACCTAGTGCAG`
3680 fluorescence intensity (a.u.)

Give the measured binding signal for `CCCGGGCCTCGCCGCGCCGCGCCACGCCACGCCTCCGCCCCGGAGTCACCTAGTGCAG`
7580 fluorescence intensity (a.u.)

Give the measured binding signal for `CACATCGAACGGTCCAAGAACAACCACATCACCAATGTGCCGGAGTCACCTAGTGCAG`
3710 fluorescence intensity (a.u.)

Give the measured binding signal for `GAGCTTCTGACTCATCTTTACTAGGAAGGGTCTTTTCAAGCGGAGTCACCTAGTGCAG`
39100 fluorescence intensity (a.u.)

Give the measured binding signal for `ATGTCGCTGTGGCTCATCCGGCCCAAGCCCATTTCCCCACCGGAGTCACCTAGTGCAG`
29500 fluorescence intensity (a.u.)
